test system: S. pneumoniae D39V; experiment: Bliss interaction score (quartile over a dose matrix) (fitness difference); higher = more antagonism (negative = synergy)
READOUT LABEL: Bliss interaction score
Reply: number alone, nothing else.

# input Look at this compound and give its reported Bliss interaction score. N[C@@H]1CONC1=O [CycloserineD] + Cc1onc(-c2ccccc2)c1C(=O)N[C@@H]1C(=O)N2[C@@H]1SC(C)(C)[C@@H]2C(=O)O [Oxacillin]
# output -0.17

# input Look at this compound and give its reported Bliss interaction score. CC(=O)OC[C@H]1O[C@@H]([S-])[C@H](OC(C)=O)[C@@H](OC(C)=O)[C@@H]1OC(C)=O.CCP(CC)CC.[Au+] [Auranofin] + CC1(C)S[C@@H]2[C@H](NC(=O)Cc3ccccc3)C(=O)N2[C@H]1C(=O)O [PenicillinG]
# output 0.0454

# input Look at this compound and give its reported Bliss interaction score. CCC[C@@H]1C[C@@H](C(=O)N[C@@H]([C@H]2O[C@H](SC)[C@H](O)[C@@H](O)[C@H]2O)[C@H](C)Cl)N(C)C1 [Clindamycin] + CN(N=O)C(=O)N[C@@H](C=O)[C@@H](O)[C@H](O)[C@H](O)CO [Streptozotocin]
# output -0.0563

# input Look at this compound and give its reported Bliss interaction score. CCC[C@@H]1C[C@@H](C(=O)N[C@@H]([C@H]2O[C@H](SC)[C@H](O)[C@@H](O)[C@H]2O)[C@H](C)Cl)N(C)C1 [Clindamycin] + CN[C@@H]1[C@H](O)[C@H](NC)[C@H]2O[C@@]3(O)C(=O)C[C@@H](C)O[C@H]3O[C@@H]2[C@H]1O [Spectinomycin]
# output 0.0544

---

Record form. Attribute: fitness. Fill in for each entry.
test system: B. subtilis 168; assay: fitness (endpoint OD595 vs no drug) (fraction); higher = more growth; settings: first compound 0.25 µg/mL; partner 0.125 µg/mL;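 also: OD595 on entry to stationary phase over no-drug wells; at most 1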

# input I'm curious: which fitness was measured for N[C@@H]1CONC1=O [Cycloserine D] + CC(=O)NC[C@H]1CN(c2ccc(N3CCOCC3)c(F)c2)C(=O)O1 [Linezolid] tested on B. subtilis 168?;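 also: OD595 on entry to stationary phase over no-drug wells; at most 1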
# output 0.574

# input I'm curious: which fitness was measured for N[C@@H]1CONC1=O [Cycloserine D] + COc1cc(Cc2cnc(N)nc2N)cc(OC)c1OC [Trimethoprim] tested on B. subtilis 168?;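 also: OD595 on entry to stationary phase over no-drug wells; at most 1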
# output 0.664

# input I'm curious: which fitness was measured for CCC[C@@H]1C[C@@H](C(=O)N[C@@H]([C@H]2O[C@H](SC)[C@H](O)[C@@H](O)[C@H]2O)[C@H](C)Cl)N(C)C1 [Clindamycin] + N[C@@H]1CONC1=O [Cycloserine D] tested on B. subtilis 168?;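 also: OD595 on entry to stationary phase over no-drug wells; at most 1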
# output 0.396

# input I'm curious: which fitness was measured for N[C@@H]1CONC1=O [Cycloserine D] + CC1=C(C(=O)O)N2C(=O)[C@@H](NC(=O)[C@H](N)c3ccccc3)[C@H]2SC1 [Cephalexin] tested on B. subtilis 168?;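 also: OD595 on entry to stationary phase over no-drug wells; at most 1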
# output 0.894

---

tested on: S. pneumoniae D39V; assay: Bliss interaction score (quartile over a dose matrix) (fitness difference); higher = more antagonism (negative = synergy)
Consider the reported Bliss interaction score of an entry and match it to a band in zone 1 (below 0.04), zone 2 (0.04 to below 0.08), zone 3 (0.08 or more)

# input // bin(item) where item = C[C@@H](O)[C@H]1C(=O)N2C(C(=O)O)=C(SCCNC=N)C[C@H]12 [Imipenem] + CO[C@H]1/C=C/O[C@@]2(C)Oc3c(C)c(O)c4c(O)c(c(/C=N/N5CCN(C)CC5)c(O)c4c3C2=O)NC(=O)/C(C)=C\C=C\[C@H](C)[C@H](O)[C@@H](C)[C@@H](O)[C@@H](C)[C@H](OC(C)=O)[C@@H]1C [Rifampicin]
# output zone 1

# input // bin(item) where item = CCC[C@@H]1C[C@@H](C(=O)N[C@@H]([C@H]2O[C@H](SC)[C@H](O)[C@@H](O)[C@H]2O)[C@H](C)Cl)N(C)C1 [Clindamycin] + CN[C@H](CC(C)C)C(=O)N[C@H]1C(=O)N[C@@H](CC(N)=O)C(=O)N[C@H]2C(=O)N[C@H]3C(=O)N[C@H](C(=O)N[C@H](C(=O)O)c4cc(O)cc(O)c4-c4cc3ccc4O)[C@H](O)c3ccc(c(Cl)c3)Oc3cc2cc(c3O[C@@H]2O[C@H](CO)[C@@H](O)[C@H](O)[C@H]2O[C@H]2C[C@](C)(N)[C@H](O)[C@H](C)O2)Oc2ccc(cc2Cl)[C@H]1O [Vancomycin]
# output zone 3

# input // bin(item) where item = CC(=O)O[C@H]1C[C@@]2(C)[C@@H](C[C@@H](O)[C@H]3[C@@]4(C)CC[C@@H](O)[C@@H](C)[C@@H]4CC[C@@]32C)/C1=C(\CCC=C(C)C)C(=O)O [Fusidic acid] + CN(N=O)C(=O)N[C@@H](C=O)[C@@H](O)[C@H](O)[C@H](O)CO [Streptozotocin]
# output zone 2

# input // bin(item) where item = C[C@@H](O)[C@H]1C(=O)N2C(C(=O)O)=C(SCCNC=N)C[C@H]12 [Imipenem] + CN(N=O)C(=O)N[C@@H](C=O)[C@@H](O)[C@H](O)[C@H](O)CO [Streptozotocin]
# output zone 2

# input // bin(item) where item = O=C(O[C@@H]1Cc2c(O)cc(O)cc2O[C@@H]1c1cc(O)c(O)c(O)c1)c1cc(O)c(O)c(O)c1 [EGCG] + Clc1ccc(COC(Cn2ccnc2)c2ccc(Cl)cc2Cl)c(Cl)c1 [Miconazole]
# output zone 2

# input // bin(item) where item = CC(=O)OC[C@H]1O[C@@H]([S-])[C@H](OC(C)=O)[C@@H](OC(C)=O)[C@@H]1OC(C)=O.CCP(CC)CC.[Au+] [Auranofin] + Cc1cc(NS(=O)(=O)c2ccc(N)cc2)no1 [Sulfamethoxazol]
# output zone 3

# input // bin(item) where item = O=C(N[C@H](CO)[C@H](O)c1ccc([N+](=O)[O-])cc1)C(Cl)Cl [Chloramphenicol] + CC[C@H]1OC(=O)[C@H](C)C(=O)[C@H](C)[C@@H](O[C@@H]2O[C@H](C)C[C@H](N(C)C)[C@H]2O)[C@](C)(OC)C[C@@H](C)C(=O)[C@H](C)[C@H]2N(CCCCn3cnc(-c4cccnc4)c3)C(=O)O[C@]12C [Telithromycin]
# output zone 1

# input // bin(item) where item = CC(=O)O[C@H]1C[C@@]2(C)[C@@H](C[C@@H](O)[C@H]3[C@@]4(C)CC[C@@H](O)[C@@H](C)[C@@H]4CC[C@@]32C)/C1=C(\CCC=C(C)C)C(=O)O [Fusidic acid] + COc1c(N2C[C@@H]3CCCN[C@@H]3C2)c(F)cc2c(=O)c(C(=O)O)cn(C3CC3)c12 [Moxifloxacin]
# output zone 2

# input // bin(item) where item = CCC[C@@H]1C[C@@H](C(=O)N[C@@H]([C@H]2O[C@H](SC)[C@H](O)[C@@H](O)[C@H]2O)[C@H](C)Cl)N(C)C1 [Clindamycin] + C[C@H]1c2cccc(O)c2C(=O)C2=C(O)[C@]3(O)C(=O)C(C(N)=O)=C(O)[C@@H](N(C)C)[C@@H]3[C@@H](O)[C@@H]21 [Doxycycline]
# output zone 1

# input // bin(item) where item = CC(=O)OC[C@H]1O[C@@H]([S-])[C@H](OC(C)=O)[C@@H](OC(C)=O)[C@@H]1OC(C)=O.CCP(CC)CC.[Au+] [Auranofin] + O=C(O)c1cn(C2CC2)c2cc(N3CCNCC3)c(F)cc2c1=O [Ciprofloxacin]
# output zone 1

# input // bin(item) where item = O=C(N[C@H](CO)[C@H](O)c1ccc([N+](=O)[O-])cc1)C(Cl)Cl [Chloramphenicol] + CC[C@H]1OC(=O)[C@H](C)[C@@H](O[C@H]2C[C@@](C)(OC)[C@@H](O)[C@H](C)O2)[C@H](C)[C@@H](O[C@@H]2O[C@H](C)C[C@H](N(C)C)[C@H]2O)[C@](C)(OC)C[C@@H](C)C(=O)[C@H](C)[C@@H](O)[C@]1(C)O [Clarithromycin]
# output zone 1

# input // bin(item) where item = COc1c(N2C[C@@H]3CCCN[C@@H]3C2)c(F)cc2c(=O)c(C(=O)O)cn(C3CC3)c12 [Moxifloxacin] + CC1(C)S[C@@H]2[C@H](NC(=O)Cc3ccccc3)C(=O)N2[C@H]1C(=O)O [PenicillinG]
# output zone 3

# input // bin(item) where item = N[C@@H]1CONC1=O [CycloserineD] + C[C@H]1COc2c(N3CCN(C)CC3)c(F)cc3c(=O)c(C(=O)O)cn1c23 [Levofloxacin]
# output zone 3

---

test system: S. aureus Newman; test: Bliss interaction score (quartile over a dose matrix) (fitness difference); higher = more antagonism (negative = synergy)
Decide using Bliss interaction score: a value greater than or equal to 0.07 is met, a smaller one is not met.

# input Exam item: decide whether the reported Bliss interaction score for CC(=O)OC[C@H]1O[C@@H]([S-])[C@H](OC(C)=O)[C@@H](OC(C)=O)[C@@H]1OC(C)=O.CCP(CC)CC.[Au+] [Auranofin] + CN(C)c1cc(NC(=O)CNC(C)(C)C)c(O)c2c1C[C@H]1C[C@H]3[C@H](N(C)C)C(O)=C(C(N)=O)C(=O)[C@@]3(O)C(O)=C1C2=O [Tigecycline] is at least 0.07.
# output not met

# input Exam item: decide whether the reported Bliss interaction score for C[C@@H](O)[C@H]1C(=O)N2C(C(=O)O)=C(SCCNC=N)C[C@H]12 [Imipenem] + Cc1cc(NS(=O)(=O)c2ccc(N)cc2)no1 [Sulfamethoxazol] is at least 0.07.
# output not met

# input Exam item: decide whether the reported Bliss interaction score for CC[C@H]1OC(=O)[C@H](C)[C@@H](O[C@H]2C[C@@](C)(OC)[C@@H](O)[C@H](C)O2)[C@H](C)[C@@H](O[C@@H]2O[C@H](C)C[C@H](N(C)C)[C@H]2O)[C@](C)(OC)C[C@@H](C)C(=O)[C@H](C)[C@@H](O)[C@]1(C)O [Clarithromycin] + CN(C)[C@@H]1C(O)=C(C(N)=O)C(=O)[C@@]2(O)C(O)=C3C(=O)c4c(O)ccc(Cl)c4[C@@](C)(O)[C@H]3C[C@@H]12 [Clortetracycline] is at least 0.07.
# output not met

# input Exam item: decide whether the reported Bliss interaction score for CC(=O)O[C@H]1C[C@@]2(C)[C@@H](C[C@@H](O)[C@H]3[C@@]4(C)CC[C@@H](O)[C@@H](C)[C@@H]4CC[C@@]32C)/C1=C(\CCC=C(C)C)C(=O)O [Fusidic acid] + Cc1ncc([N+](=O)[O-])n1CCO [Metronidazole] is at least 0.07.
# output not met

# input Exam item: decide whether the reported Bliss interaction score for CCC[C@@H]1C[C@@H](C(=O)N[C@@H]([C@H]2O[C@H](SC)[C@H](O)[C@@H](O)[C@H]2O)[C@H](C)Cl)N(C)C1 [Clindamycin] + COc1cc(Cc2cnc(N)nc2N)cc(OC)c1OC [Trimethoprim] is at least 0.07.
# output met

# input Exam item: decide whether the reported Bliss interaction score for CC[C@H]1OC(=O)[C@H](C)[C@@H](O[C@H]2C[C@@](C)(OC)[C@@H](O)[C@H](C)O2)[C@H](C)[C@@H](O[C@@H]2O[C@H](C)C[C@H](N(C)C)[C@H]2O)[C@](C)(OC)C[C@@H](C)C(=O)[C@H](C)[C@@H](O)[C@]1(C)O [Clarithromycin] + Oc1cc(Cl)ccc1Oc1ccc(Cl)cc1Cl [Triclosan] is at least 0.07.
# output not met

# input Exam item: decide whether the reported Bliss interaction score for O=C1CN(/N=C/c2ccc([N+](=O)[O-])o2)C(=O)N1 [Nitrofurantoin] + COc1cc(Cc2cnc(N)nc2N)cc(OC)c1OC [Trimethoprim] is at least 0.07.
# output not met

# input Exam item: decide whether the reported Bliss interaction score for N[C@@H]1CONC1=O [CycloserineD] + CCC[C@@H]1C[C@@H](C(=O)N[C@@H]([C@H]2O[C@H](SC)[C@H](O)[C@@H](O)[C@H]2O)[C@@H](C)O)N(C)C1 [Lincomycin] is at least 0.07.
# output met
